Where do the numbers come from? From patent US20260317356A1.

- tested_system: hOGG1 (Homo sapiens)
- Sequence (O15527 12-323): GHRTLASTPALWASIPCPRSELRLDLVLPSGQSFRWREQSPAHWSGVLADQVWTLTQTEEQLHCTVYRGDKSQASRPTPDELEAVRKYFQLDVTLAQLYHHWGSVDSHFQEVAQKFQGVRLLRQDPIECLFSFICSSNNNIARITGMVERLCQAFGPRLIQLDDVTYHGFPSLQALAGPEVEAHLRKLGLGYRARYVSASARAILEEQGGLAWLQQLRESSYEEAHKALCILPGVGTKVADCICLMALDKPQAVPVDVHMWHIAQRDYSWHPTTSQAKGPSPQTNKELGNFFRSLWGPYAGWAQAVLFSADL
- experiment_notes: Biochemical fluorescence assay to measure enzymatic activity of hOGG1 (OGG1/APEX IC50)
- Design: Protein His-hOGG1 (12-323) was prepared; His (N); host or cells: E. coli
- assay_setup: 1 nM OGG1+2 nM APEX+6 nM dsDNA (8-oxo-dG substrate); pH 7.5; RT 40 min; read-out: OGG1/APEX IC50
- Procedure: Biological Example 1: Biochemical Assay to Measure Enzymatic Activity of hOGG1 (OGG1/APEX IC50) The reported fluorescence-based assay (Donley et al ACS Chem Biol 2015; 10 (10), 2334-2343) was modified to include hAPE1/APEX1 protein. The oligonucleotide substrate with 8-oxo-dG lesion at X was prepared (LGC Biosearch, Petaluma, CA): […] • (1) Calculated respective mean of Max and Min control wells. • (2) Converted data to percentage inhibition. […]
readout: IC50

compound=COc1ccc(NC(=O)[C@H]2CC[C@@H](N3Cc4c(C)cccc4C3=O)CC2)cn1 data_value="1000 to 10000 nM"
compound=COc1cc(NC(=O)[C@H]2CC[C@@H](N3Cc4c(C)cnc(Cl)c4NC3=O)CC2)ccc1C data_value="< 100 nM"
compound=COc1cc(NC(=O)[C@H]2CC[C@@H](N3Cc4c(C)cccc4C3=O)CC2)ccc1C1CC1 data_value="1000 to 10000 nM"
compound="COc1cc(NC(=O)[C@]2(C)CC[C@H](N3Cc4c(C)cccc4NC3=O)CC2)ccc1C (single isomer, unassigned)" data_value="< 100 nM"
